Molecular target: Mot3 (UniProt P54785)
Sequence: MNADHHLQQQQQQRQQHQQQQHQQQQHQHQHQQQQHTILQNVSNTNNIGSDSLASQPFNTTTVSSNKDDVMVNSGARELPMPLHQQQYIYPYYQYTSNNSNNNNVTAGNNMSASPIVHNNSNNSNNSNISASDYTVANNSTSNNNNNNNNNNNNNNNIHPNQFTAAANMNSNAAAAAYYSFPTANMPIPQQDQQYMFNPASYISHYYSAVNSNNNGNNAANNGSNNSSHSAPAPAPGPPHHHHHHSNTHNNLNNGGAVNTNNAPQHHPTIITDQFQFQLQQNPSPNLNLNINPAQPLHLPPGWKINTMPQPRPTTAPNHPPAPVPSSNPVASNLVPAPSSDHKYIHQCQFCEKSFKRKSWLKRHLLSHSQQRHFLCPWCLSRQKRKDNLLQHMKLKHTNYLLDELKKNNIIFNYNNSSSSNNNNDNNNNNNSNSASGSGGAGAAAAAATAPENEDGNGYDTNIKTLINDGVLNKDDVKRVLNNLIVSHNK
Assay: PBM E-score (8-mer binding enrichment) (E-score (-0.5 to 0.5)); higher = stronger / more preferred TF binding
Conditions: protein concentration: 200 nM; construct: GST-full length
Over roughly 33,000 sequences, “E-score (-0.5 to 0.5)” has its median near -0.035; the highest 2% begin near 0.34. This is one part of a sample in which the highest values are shown more often than they occur.
Threshold rule: PBM E-score greater than or equal to 0.04 is t; below that, f.

Hello, I need to know if `AGGGACCA` has measured PBM E-score not below 0.04. Thanks!
f

Request: `AGTATGTA`
t

Request: `GGCACGCA`
t

Request: `ACTATGTC`
t

Request: `ATGAAGTA`
f

Request: `GGCACGTA`
t

Request: `AAACGTGC`
t

Request: `GGCACGGA`
t

Request: `CGTTGATA`
t

Request: `CAGGCAAG`
t

Request: `GAAGCTTC`
f

Request: `ATTAAGGA`
t

Request: `CACACGGA`
t

Request: `GAGGCAAA`
t

Request: `AGCCTCAA`
f

Request: `ACCTTCCT`
f

Request: `TACACGGA`
t

Request: `GGTATGTA`
t

Request: `GAGGTAAA`
t

Request: `CATATGTA`
t

Request: `CTATGAAC`
t

Request: `AAGGTATT`
t

Request: `CGGCACGA`
f

Request: `CTGTCTCA`
f

Request: `AAGGTAAC`
t

Request: `AAGGTAAG`
t

Request: `ACTTAAGG`
t

Request: `AAGCACGG`
t

Request: `ACACAGGC`
t

Request: `CGCACGAC`
f

Request: `CGTATGTA`
t

Request: `CAGACAAC`
f

Request: `CATCTACA`
t

Request: `CGCCTCCA`
f

Request: `TAGGAGCA`
t

Request: `CTCCGAAC`
f

Request: `GAGGTAAC`
f

Request: `CAGGCAGG`
t

Request: `AGGCACGA`
t

Request: `ATACACGC`
t

Request: `CAGGCAAC`
t

Request: `AAGCAATG`
f

Request: `CACACGTA`
t

Request: `CAGGTAAC`
t

Request: `GACTCCTA`
f

Request: `ACTATGTG`
t

Request: `AAGGTAGC`
t

Request: `TGCTTCAA`
t

Request: `CGCTGAAA`
t

Request: `TTTACAAA`
t

Request: `TACACGTA`
t

Request: `CGCACGTA`
t

Request: `AGCCTCCA`
f

Request: `CGGGCAAC`
f

Request: `ATTACAAC`
t

Request: `GCAGTCAC`
t

Request: `AATCTACA`
t

Request: `CCTATGTC`
t

Request: `CTTACAAA`
t

Request: `CCGGGTCC`
f

Request: `CCAAGACG`
f

Request: `AGGCACGG`
t

Request: `ATACACTA`
t

Request: `ACCCTTTA`
t

Request: `CGCACGGA`
f

Request: `GTGATCGA`
t

Request: `AATCTACT`
f

Reference for the values: the supplement of paper PMC3334620
